TESTED_SYSTEM: Prostaglandin G/H synthase 2 (Homo sapiens)
Sequence (P35354 whole entry): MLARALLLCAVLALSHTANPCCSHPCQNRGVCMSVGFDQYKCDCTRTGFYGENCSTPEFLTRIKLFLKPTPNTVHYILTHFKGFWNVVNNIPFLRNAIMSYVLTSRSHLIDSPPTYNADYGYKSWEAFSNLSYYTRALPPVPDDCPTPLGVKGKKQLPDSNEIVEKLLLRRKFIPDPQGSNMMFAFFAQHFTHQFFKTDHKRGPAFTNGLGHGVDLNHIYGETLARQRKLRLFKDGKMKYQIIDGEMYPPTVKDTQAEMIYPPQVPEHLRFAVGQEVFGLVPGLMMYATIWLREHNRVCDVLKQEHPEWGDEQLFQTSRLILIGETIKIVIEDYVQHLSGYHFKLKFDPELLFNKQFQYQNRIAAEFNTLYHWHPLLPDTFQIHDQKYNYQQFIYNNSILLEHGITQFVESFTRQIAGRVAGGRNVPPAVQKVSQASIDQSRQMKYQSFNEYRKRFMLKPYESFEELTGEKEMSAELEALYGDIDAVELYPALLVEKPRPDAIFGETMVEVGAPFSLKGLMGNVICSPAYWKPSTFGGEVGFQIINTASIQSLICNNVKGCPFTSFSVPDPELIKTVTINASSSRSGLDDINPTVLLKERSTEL
ASSAY_NAME: Instantaneous inhibition of human COX2 measured immediately after incubation of enzyme with compound
pIC50: −log10 of the molar value.
QUANTITY_KIND: pIC50

INSERT INTO measurements (compound, quantitative_readout) VALUES
  ('O=C(c1ccccc1)c1ccc2n1CCC2C(=O)O (racemic) [KETOROLAC TROMETHAMINE]', 4.22);
